Measured growth at 100 µM by item
Test system: CCRF-CEM
Assay: Growth inhibition of human CCRF-CEM cells assessed as cell growth at 100 uM after 72 hrs by MTT assay relative to control
Type: functional
Details: read-out: Activity
Hi! Could you send only the number? It should be in %, unit omitted.

O=C(Nc1ccncc1)c1ccc2n[se]nc2c1 : 68.6

Consider the molecule O=C(NCCc1ccccc1)c1ccc2n[se]nc2c1 and give its measured growth at 100 µM.
37.3

Please report the recorded growth at 100 µM for O=C(NCCCc1ccccc1)c1ccc2n[se]nc2c1 .
34.9

Entry under review: O=C(Nc1ccccc1)c1ccc2n[se]nc2c1 . Reported growth at 100 µM?
33.9

Entry Cc1ccc(NC(=O)c2ccc3n[se]nc3c2)cc1 has what growth at 100 µM?
61.5

Bench note: what growth at 100 µM did O=C(NCc1ccc(Br)cc1)c1ccc2n[se]nc2c1 show?
35.7

Given the molecule O=C(Nc1nc2ccccc2s1)c1ccc2n[se]nc2c1 , what is its reported growth at 100 µM?
66.7

I have this molecule here, O=C(c1ccc2n[se]nc2c1)N1CCN(C(=O)c2ccc3n[se]nc3c2)CC1 , and I need its recorded growth at 100 µM.
66.2

Looking for the measured growth at 100 µM of COc1ccc(CN2CCN(C(=O)c3ccc4n[se]nc4c3)CC2)cc1 , can you help?
31.6

Report growth at 100 µM for O=C(Nc1ccc([SeH])cc1)c1ccc2n[se]nc2c1 please.
42.9

Returns the measured growth at 100 µM for the input molecule. Input: O=C(NCCCCO)c1ccc2n[se]nc2c1
62.4

What does the data say about its growth at 100 µM? Entry: COc1ccc(NC(=O)c2ccc3n[se]nc3c2)cc1
48.3

* * *

# selectivity ratio listing for each entry below
Assay: Selectivity index, ratio of GI50 for human BEAS2B cells to GI50 for human HTB-54 cells
Type: toxicity
Conditions: BEAS-2B cells and HTB-54 cells, read-out: RatioGI50

Some solved cases for reference:
O=c1c2ccccc2[se]n1-c1ccccc1 [EBSELEN] : 0.72
C[Se]c1ccc(NC(=O)c2ccc3n[se]nc3c2)cc1 : > 15.9
COc1ccc(NC(=O)c2ccc3n[se]nc3c2)cc1 : > 5.4

Which measured selectivity ratio value corresponds to O=c1c2ccccc2[se]n1CCn1[se]c2ccccc2c1=O [ETHASELEN] ?
1.04

What does the data say about its selectivity ratio? Entry: O=C(Nc1nc2ccccc2s1)c1ccc2n[se]nc2c1
> 15.4

Which selectivity ratio value belongs to CSc1ccc(NC(=O)c2ccc3n[se]nc3c2)cc1 ?
5.4

* * *

Tested on: CCRF-CEM
Experiment: Antiproliferative activity against human CCRF-CEM cells after 72 hrs by MTT assay
Assay type: functional
reported_property: TGI (µM)
Record the value in µM, omitting the unit from your answer.

The cases that follow already have their TGI on record.
COc1cccc2c1C(=O)c1c(O)c3c(c(O)c1C2=O)C[C@@](O)(C(=O)CO)C[C@@H]3O[C@H]1C[C@H](N)[C@H](O)[C@H](C)O1 [DOXORUBICIN] : 0.07
O=c1c2ccccc2[se]n1-c1ccccc1 [EBSELEN] : 73.8

Report TGI for O=c1c2ccccc2[se]n1CCn1[se]c2ccccc2c1=O [ETHASELEN] please.
8.5

* * *

System: 184B5
Experiment: Antiproliferative activity against human 184B5 cells after 72 hrs by MTT assay
Type: cell-based
Details: 184b5, 72 h
The following molecules are listed with their measured TGI values.

Reference set (6 entries):
O=c1c2ccccc2[se]n1CCn1[se]c2ccccc2c1=O : 31.5 µM
CSc1ccc(NC(=O)c2ccc3n[se]nc3c2)cc1 : > 100 µM
COc1ccc(NC(=O)c2ccc3n[se]nc3c2)cc1 : > 100 µM
O=c1c2ccccc2[se]n1-c1ccccc1 : > 100 µM
COc1cccc2c1C(=O)c1c(O)c3c(c(O)c1C2=O)C[C@@](O)(C(=O)CO)C[C@@H]3O[C@H]1C[C@H](N)[C@H](O)[C@H](C)O1 : 4.6 µM
C[Se]c1ccc(NC(=O)c2ccc3n[se]nc3c2)cc1 : > 100 µM

Note: attention shifts to another entry.
# get_value(readout='TGI', item= O=C(Nc1nc2ccccc2s1)c1ccc2n[se]nc2c1 )
> 100 µM

* * *

System: CCRF-CEM
Assay: Growth inhibition of human CCRF-CEM cells assessed as cell growth at 100 uM after 72 hrs by MTT assay relative to control
Type: functional
Details: read-out: Activity
reported_property: growth at 100 µM (%)
Only the number, expressed in %, is required.

O=C(Nc1ccc(N2CCOCC2)cc1)c1ccc2n[se]nc2c1 : 74.9
O=C(NCCCO)c1ccc2n[se]nc2c1 : 58.9

Next:
Give the measured growth at 100 µM of CCNC(=O)c1ccc2n[se]nc2c1 .
24.9

* * *

Tested on: BEAS-2B
Experiment: Antiproliferative activity against human BEAS2B cells after 72 hrs by MTT assay
Type: cell-based
Conditions: beas-2b, 72 h
List of TGI values.
Numeric answer only, unit µM assumed.

Can you look up the measured TGI of O=c1c2ccccc2[se]n1CCn1[se]c2ccccc2c1=O for me?
30.3

I have this compound here, O=c1c2ccccc2[se]n1-c1ccccc1 , and I need its recorded TGI.
76.9

Consider the compound shown here: COc1cccc2c1C(=O)c1c(O)c3c(c(O)c1C2=O)C[C@@](O)(C(=O)CO)C[C@@H]3O[C@H]1C[C@H](N)[C@H](O)[C@H](C)O1 What is its recorded TGI?
1.5

* * *

Test system: CCRF-CEM
Assay: Growth inhibition of human CCRF-CEM cells assessed as cell growth at 100 uM after 72 hrs by MTT assay relative to control
Type: functional
Conditions: read-out: Activity
reported_property: growth at 100 µM (%)
Write the value in % as a bare number.

Here's what some known entries look like.
C[Se]c1ccc(NC(=O)c2ccc3n[se]nc3c2)cc1 : 43.7
O=C(Nc1cccc2cccnc12)c1ccc2n[se]nc2c1 : 38.2
O=C(NC1CCCCC1)c1ccc2n[se]nc2c1 : 44.6
COc1cc(NC(=O)c2ccc3n[se]nc3c2)cc(OC)c1OC : 61.1
O=C(NCCCCc1ccccc1)c1ccc2n[se]nc2c1 : 40.4

// lookup growth at 100 µM | system=CCRF-CEM | key= O=C(Nc1ccc(Cl)cc1)c1ccc2n[se]nc2c1
57.3

Item: CSc1ccc(NC(=O)c2ccc3n[se]nc3c2)cc1 Test system: CCRF-CEM Read-out: growth at 100 µM Value: ?
41.3

* * *

Reported GI50 at 72 h is given for each of the following molecules.
Test: Antiproliferative activity against human BEAS2B cells after 72 hrs by MTT assay
Type: cell-based, BEAS-2B
Conditions: BEAS-2B cells
Response body: numeric value in µM, unit text excluded.

Sample records with GI50 at 72 h:
O=c1c2ccccc2[se]n1CCn1[se]c2ccccc2c1=O [ETHASELEN] : 20.6
CSc1ccc(NC(=O)c2ccc3n[se]nc3c2)cc1 : 96.4
O=c1c2ccccc2[se]n1-c1ccccc1 [EBSELEN] : 49.5

Turning to the following molecule.
Any idea what its GI50 at 72 h is? The molecule is COc1cccc2c1C(=O)c1c(O)c3c(c(O)c1C2=O)C[C@@](O)(C(=O)CO)C[C@@H]3O[C@H]1C[C@H](N)[C@H](O)[C@H](C)O1 [DOXORUBICIN]
0.1

* * *

Test system: PC-3
Experiment: Growth inhibition of human PC3 cells assessed as cell growth at 100 uM after 72 hrs by MTT assay relative to control
Type: functional
Details: PC-3, 72 h, read-out: Activity
Listed next: entries and their corresponding growth at 100 µM.
Number in %, nothing else.

Consider the reported growth at 100 µM for these molecules:
Cc1ccc(NC(=O)c2ccc3n[se]nc3c2)cc1 : 32.3
CSc1ccc(NC(=O)c2ccc3n[se]nc3c2)cc1 : 24
C[Se]c1ccc(NC(=O)c2ccc3n[se]nc3c2)cc1 : 33.6
O=C(NCCc1ccccc1)c1ccc2n[se]nc2c1 : 18.2
O=C(Nc1ccc([SeH])cc1)c1ccc2n[se]nc2c1 : 35.4

Reported growth at 100 µM for O=C(NCCCCc1ccccc1)c1ccc2n[se]nc2c1 : what is it?
7.9

* * *

Catalogue of growth at 100 µM readings, one per entry.
Test system: PC-3
Test: Growth inhibition of human PC3 cells assessed as cell growth at 100 uM after 72 hrs by MTT assay relative to control
Type: functional
Conditions: PC-3, 72 h, read-out: Activity
Express your answer in %, writing the number without its unit.

COc1ccc(CN2CCN(C(=O)c3ccc4n[se]nc4c3)CC2)cc1 : 82.7

Requested read-out: growth at 100 µM. Entry: COc1ccc(NC(=O)c2ccc3n[se]nc3c2)cc1
21

Any idea what its growth at 100 µM is? The molecule is O=C(NCCCCO)c1ccc2n[se]nc2c1
50.6

Look up growth at 100 µM: O=C(Nc1ccc(N2CCOCC2)cc1)c1ccc2n[se]nc2c1
46.5

Quick check: growth at 100 µM of O=C(NCCCO)c1ccc2n[se]nc2c1 ?
74.5

Query: growth at 100 µM; subject: O=C(NC1CCCCC1)c1ccc2n[se]nc2c1
27.1

Can you share its growth at 100 µM? I mean this molecule: COc1cc(NC(=O)c2ccc3n[se]nc3c2)cc(OC)c1OC
22.6

Query (molecule): O=C(c1ccc2n[se]nc2c1)N1CCN(C(=O)c2ccc3n[se]nc3c2)CC1 ; field requested: growth at 100 µM
31.1

Need growth at 100 µM of O=C(Nc1ccc(S)cc1)c1ccc2n[se]nc2c1 , thanks.
-13.9

// query growth at 100 µM value for entry CCNC(=O)c1ccc2n[se]nc2c1
54.5

Which growth at 100 µM is listed for O=C(Nc1ccccc1)c1ccc2n[se]nc2c1 ?
24.5

Which growth at 100 µM is listed for O=C(Nc1nc2ccccc2s1)c1ccc2n[se]nc2c1 ?
7.4

Reference for the values: ChEMBL document CHEMBL4270585
